# tgt: D(4) dopamine receptor (Homo sapiens, UniProt P21917)
# Sequence (P21917 whole entry): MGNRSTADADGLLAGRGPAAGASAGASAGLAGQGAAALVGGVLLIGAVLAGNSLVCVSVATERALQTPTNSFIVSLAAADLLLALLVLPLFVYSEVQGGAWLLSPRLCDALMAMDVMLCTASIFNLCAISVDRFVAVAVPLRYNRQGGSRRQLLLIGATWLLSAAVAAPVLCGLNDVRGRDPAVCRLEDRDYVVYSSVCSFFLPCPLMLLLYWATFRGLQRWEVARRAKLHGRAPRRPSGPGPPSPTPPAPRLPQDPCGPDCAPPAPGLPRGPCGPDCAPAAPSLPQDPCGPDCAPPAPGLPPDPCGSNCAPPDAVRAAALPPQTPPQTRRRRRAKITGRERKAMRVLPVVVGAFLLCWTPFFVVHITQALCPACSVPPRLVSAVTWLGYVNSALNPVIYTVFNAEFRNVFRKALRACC
assay-endpoint: Ki (nM)
Please reply with the bare figure in nM and do not write the unit itself.

input: Provide the documented Ki with D(4) dopamine receptor (Homo sapiens, UniProt P21917) as the system for NC(=O)C1CCC(CN2CCC(=C(c3ccccc3)c3ccc(F)cc3)CC2)O1 (stereo unspecified)
output: 158

* * *

Consider the following compounds and their measured ED50 readings.
# Tested on: Mus musculus
# experiment-description: Effective dose required for inhibition of apomorphine(sc, 2.5 mg/kg ) induced stereotypy in mice on ip administration
# Format: functional
# test-conditions: route intraperitoneal
Please respond with the number in µmol/kg and leave the unit unwritten.

1) O=C(CCCN1CCC(O)(c2ccc(Cl)cc2)CC1)c1ccc(F)cc1: 0.31
2) CN1CCN(C2=Nc3cc(Cl)ccc3Nc3ccccc32)CC1: 67

input: Please report the recorded ED50 for `OCCOCCN1CCN(C2=Nc3ccccc3Sc3ccccc32)CC1` .
output: 60

input: Suppose we examine the compound NC(=O)C1CCC(CN2CCC(=C(c3ccccc3)c3ccc(F)cc3)CC2)O1 (centres undefined) ; what ED50 value has been reported?
output: 69
